Tested on: human Factor 7 mRNA
Test: Dose-dependent antisense inhibition of human Factor 7 in HepB3 cells, transfection with lipofectin
Type: cell-based
Conditions: 12.5 nM, lipofectin, HepB3 cells, 16 hours
Protocol: Cells were plated at a density of 4,000 cells per well and treated with lipofectin reagent with 3.125 nM, 6.25 nM, 12.5 nM, 25 nM, 50 nM, and 100 nM concentrations of antisense oligonucleotide, as indicated in Table 3. After a treatment period of approximately 16 hours, RNA was isolated from the cells and Factor 7 mRNA levels were measured by real-time RT-PCR, as described herein. […] Factor 7 mRNA levels were adjusted according to total RNA content as measured by RIBOGREEN®. […]
In the oligonucleotide strings, read from the 5' end, every base follows the letter of its sugar. An asterisk marks phosphorothioate; unmarked linkages are phosphodiester. Other units and linkages are bracketed, terminal groups are in braces. A string of capitals states the bases alone. e = 2'-O-(2-methoxyethyl) (MOE); [5mC] = 5-methylcytosine; d = 2'-deoxy (DNA)
// label = met if percent inhibition of Factor 7 mRNA, relative to untreated control cells is not less than 50%, otherwise not met

>  <SUBSTANCE>
422183 (antisense eG*e[5mC]*eG*d[5mC]*d[5mC]*dA*d[5mC]*d[5mC]*d[5mC]*dG*d[5mC]*d[5mC]*dG*dG*d[5mC]*dT*d[5mC]*eT*eG*e[5mC]) [compound 422183]

>  <TESTED TARGET>
human Factor 7 mRNA

>  <CAT>
met

$$$$
>  <SUBSTANCE>
422294 (antisense eG*eA*dG*dT*dT*d[5mC]*dT*dG*d[5mC]*dA*dG*dG*dA*dG*d[5mC]*eG*eG*e[5mC]*e[5mC]*eT) [compound 422294]

>  <TESTED TARGET>
human Factor 7 mRNA

>  <CAT>
not met

$$$$
>  <SUBSTANCE>
422177 (antisense e[5mC]*e[5mC]*e[5mC]*dG*d[5mC]*d[5mC]*dG*dG*d[5mC]*dT*d[5mC]*dT*dG*d[5mC]*dT*d[5mC]*dA*eT*e[5mC]*e[5mC]) [compound 422177]

>  <TESTED TARGET>
human Factor 7 mRNA

>  <CAT>
not met

$$$$
>  <SUBSTANCE>
422217 (antisense eG*eA*eG*dT*dT*d[5mC]*dT*dG*d[5mC]*dA*dG*dG*dA*dG*d[5mC]*dG*dG*e[5mC]*e[5mC]*eT) [compound 422217]

>  <TESTED TARGET>
human Factor 7 mRNA

>  <CAT>
not met

$$$$

---

tested on: human Factor 7 mRNA; assay: Dose-dependent antisense inhibition of human Factor 7 in HepB3 cells, transfection with lipofectin; format: cell-based; conditions: 100 nM, lipofectin, HepB3 cells, 16 hours
In the oligonucleotide strings, read from the 5' end, every base follows the letter of its sugar. An asterisk marks phosphorothioate; unmarked linkages are phosphodiester. Other units and linkages are bracketed, terminal groups are in braces. A string of capitals states the bases alone. e = 2'-O-(2-methoxyethyl) (MOE); [5mC] = 5-methylcytosine; d = 2'-deoxy (DNA)
MEASURED ATTRIBUTE: percent inhibition of Factor 7 mRNA, relative to untreated control cells (%)

>  <SUBSTANCE>
422152 (antisense eA*eT*eG*d[5mC]*dA*dT*dG*dG*dT*dG*dA*dT*dG*d[5mC]*dT*dT*d[5mC]*eT*eG*eA) [compound 422152]

>  <RESULT VALUE>
89

$$$$
>  <SUBSTANCE>
422140 (antisense eG*eT*eT*e[5mC]*eT*dG*d[5mC]*dA*dG*dG*dA*dG*d[5mC]*dG*dG*e[5mC]*e[5mC]*eT*eA*eA) [compound 422140]

>  <RESULT VALUE>
74

$$$$
>  <SUBSTANCE>
422252 (antisense e[5mC]*eG*d[5mC]*d[5mC]*dG*dG*d[5mC]*dT*d[5mC]*dT*dG*d[5mC]*dT*d[5mC]*dA*eT*e[5mC]*e[5mC]*e[5mC]*e[5mC]) [compound 422252]

>  <RESULT VALUE>
87

$$$$
>  <SUBSTANCE>
422130 (antisense eG*e[5mC]*e[5mC]*eT*eG*dA*dG*dG*d[5mC]*d[5mC]*dA*dG*d[5mC]*dA*dG*eA*eT*e[5mC]*eA*e[5mC]) [compound 422130]

>  <RESULT VALUE>
85

$$$$

---

Quick list: % Inhibition of human Factor 7 mRNA levels per entry.
tested on: human Factor 7 mRNA; assay: Antisense inhibition of human Factor 7 mRNA in HepB3 cells, lipofectin, 50 nM, real-time RT-PCR; assay type: cell-based; conditions: HepB3 cells, lipofectin, 50 nM antisense oligonucleotide, approximately 24 hours, primer probe set RTS 2927, relative to untreated control
In the oligonucleotide strings, read from the 5' end, every base follows the letter of its sugar. An asterisk marks phosphorothioate; unmarked linkages are phosphodiester. Other units and linkages are bracketed, terminal groups are in braces. A string of capitals states the bases alone. e = 2'-O-(2-methoxyethyl) (MOE); [5mC] = 5-methylcytosine; d = 2'-deoxy (DNA)
MEASURED ATTRIBUTE: % Inhibition of human Factor 7 mRNA levels (%)

>  <SUBSTANCE>
416524 (antisense eT*eA*eA*eT*eT*dT*dA*dA*dT*dA*dT*dT*d[5mC]*dA*dG*eA*eT*eG*eG*eT) [compound 416524]

>  <TESTED TARGET>
human Factor 7 mRNA

>  <OUTPUT UNIT>
%

>  <RESULT VALUE>
0

$$$$
>  <SUBSTANCE>
416431 (antisense eA*eG*eG*eG*eA*dG*d[5mC]*d[5mC]*d[5mC]*dG*dG*d[5mC]*d[5mC]*dG*d[5mC]*eA*eG*e[5mC]*eT*e[5mC]) [compound 416431]

>  <TESTED TARGET>
human Factor 7 mRNA

>  <OUTPUT UNIT>
%

>  <RESULT VALUE>
25

$$$$
>  <SUBSTANCE>
416560 (antisense eT*eA*eA*eA*eA*d[5mC]*dT*dT*dT*dA*dT*dT*dT*dA*d[5mC]*eA*eA*eG*eA*eG) [compound 416560]

>  <TESTED TARGET>
human Factor 7 mRNA

>  <OUTPUT UNIT>
%

>  <RESULT VALUE>
0

$$$$
>  <SUBSTANCE>
416448 (antisense eT*eT*eT*eT*eT*d[5mC]*d[5mC]*dA*d[5mC]*dA*dT*dG*dG*dA*dT*eA*eT*eT*e[5mC]*eA) [compound 416448]

>  <TESTED TARGET>
human Factor 7 mRNA

>  <OUTPUT UNIT>
%

>  <RESULT VALUE>
34

$$$$
>  <SUBSTANCE>
416442 (antisense eA*eG*e[5mC]*eA*eG*dA*dT*dA*dT*dA*dG*dG*dA*d[5mC]*dT*eG*eG*eA*eG*e[5mC]) [compound 416442]

>  <TESTED TARGET>
human Factor 7 mRNA

>  <OUTPUT UNIT>
%

>  <RESULT VALUE>
57

$$$$

---

Entries and their % Inhibition of human Factor 7 mRNA levels values follow.
test system: human Factor 7 mRNA; assay: Antisense inhibition of human Factor 7 mRNA in HepB3 cells, lipofectin, 50 nM, real-time RT-PCR; assay type: cell-based; settings: HepB3 cells, lipofectin, 50 nM antisense oligonucleotide, approximately 24 hours, primer probe set RTS 2927, relative to untreated control
In the oligonucleotide strings, read from the 5' end, every base follows the letter of its sugar. An asterisk marks phosphorothioate; unmarked linkages are phosphodiester. Other units and linkages are bracketed, terminal groups are in braces. A string of capitals states the bases alone. e = 2'-O-(2-methoxyethyl) (MOE); [5mC] = 5-methylcytosine; d = 2'-deoxy (DNA)
MEASURED ATTRIBUTE: % Inhibition of human Factor 7 mRNA levels (%)

>  <SUBSTANCE>
416427 (antisense e[5mC]*e[5mC]*e[5mC]*eT*eG*dA*dA*dG*d[5mC]*d[5mC]*d[5mC]*dA*dA*dG*d[5mC]*eA*eG*eA*eA*eG) [compound 416427]

>  <RESULT VALUE>
5

$$$$
>  <SUBSTANCE>
416456 (antisense e[5mC]*eT*eG*e[5mC]*eG*d[5mC]*d[5mC]*dA*d[5mC]*d[5mC]*d[5mC]*dG*d[5mC]*d[5mC]*dG*eG*e[5mC]*eT*e[5mC]*eT) [compound 416456]

>  <RESULT VALUE>
58

$$$$
>  <SUBSTANCE>
416527 (antisense eG*eA*eG*e[5mC]*eT*dT*d[5mC]*d[5mC]*d[5mC]*dA*dA*dG*dT*dT*dG*eG*e[5mC]*eA*eG*eT) [compound 416527]

>  <RESULT VALUE>
49

$$$$
>  <SUBSTANCE>
416472 (antisense e[5mC]*eA*eG*e[5mC]*e[5mC]*dT*dT*dG*dG*d[5mC]*dT*dT*dT*d[5mC]*dT*e[5mC]*eT*e[5mC]*e[5mC]*eA) [compound 416472]

>  <RESULT VALUE>
76

$$$$

Just for reference, patent US20120214862A1 is where these values come from.
